Please provide measured pEC50 for the entries that follow.
- system tested: UniProt:O14842
- Sequence (O14842 whole entry): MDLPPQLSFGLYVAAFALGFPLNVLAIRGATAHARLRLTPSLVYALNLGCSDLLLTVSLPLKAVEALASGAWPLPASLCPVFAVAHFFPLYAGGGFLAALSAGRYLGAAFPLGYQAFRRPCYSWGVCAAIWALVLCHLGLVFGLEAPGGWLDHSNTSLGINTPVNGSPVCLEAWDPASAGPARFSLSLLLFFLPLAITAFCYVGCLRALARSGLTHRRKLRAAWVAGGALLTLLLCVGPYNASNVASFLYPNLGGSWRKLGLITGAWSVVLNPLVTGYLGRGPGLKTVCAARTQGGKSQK
- assay summary: Ca2+ mobilization (FLIPR) in a stable GPR40-expressing cell; GPR40 agonist activity
- assay context: compound concentration corresponding to 50% PosiC, 100% = intracellular calcium level induced by 80 μM palmitic acid
pEC50: −log10 of the molar value. Structures can show the parent of a compound that is named as a salt.

The cases that follow already have their pEC50 on record.
QUERY: Which value of pEC50 has been reported for CCOC(CC(=O)O)c1ccc(OCC2=CC3(CCCCC3)CCC2)cc1 (single isomer, unassigned; (-)) [Example 120] in the records?
RESULT: 6.00 to 7.00

QUERY: What value of pEC50 has been reported for the following compound? CC1CCCC(C)C12CCCC(COc1ccc(CCC(=O)O)cc1)C2 (racemic)
RESULT: 5.00 to 6.00

QUERY: Tell me the measured pEC50 of O=C(O)CCc1ccc(OCC2CCCC3(CCCCC3)C2)cc1 (single isomer, unassigned) [Example 88] , please.
RESULT: 5.00 to 6.00

QUERY: Need pEC50, item CCC(CC(=O)O)c1ccc(OCC2CCCC3(CCCCC3)C2)cc1 (racemic)
RESULT: 5.00 to 6.00

QUERY: Return reported pEC50; argument: CC1(C)CCC2(CCCC(COc3ccc(CCC(=O)O)cc3)C2)CC1 (racemic)
RESULT: 5.00 to 6.00

QUERY: State the recorded pEC50 for this entry: CC#C[C@@H](CC(=O)O)c1ccc(OCC2CCC3(CCCCC3)CC2)cc1
RESULT: 6.00 to 7.00

Need pEC50 for each of these compounds.
1. CC#C[C@@H](CC(=O)O)c1ccc(OCC2CCCC3(CCCCC3)C2)cc1 (mixture of isomers) [Example 28]
2. CC1=CCCC(C)C12CCCC(COc1ccc(CCC(=O)O)cc1)C2 (racemic)
3. O=C(O)CCc1ccc(OCC2=CC3(CCCC3)CCC2)cc1Cl
4. O=C(O)CCc1ccc(OCC2CCCC3(CCCCC3)C2)cc1 (racemic) [Example 46]
5. CN(C)C(=O)C(CC(=O)O)c1ccc(OCC2CCCC3(CCCCC3)C2)cc1 (racemic)
6. CC#C[C@@H](CC(=O)O)c1ccc(OCC2=CCCC3(CCCCCC3)C2)cc1 [Example 4, sodium salt]
7. COc1cc(CCC(=O)O)ccc1OCC1=CC2(CCCC2)CCC1

RESULT:
1. 7.00 to 8.00
2. 6.00 to 7.00
3. 5.00 to 6.00
4. 5.00 to 6.00
5. 6.00 to 7.00
6. 7.00 to 8.00
7. ≤ 5.00
